Each recorded value in this set is attributed to patent US20250242064A1.

test protocol: in vivo
Set-up: species or system mice
condition context: male, NOD.Cg-Rag1tm1Mom Il2rgtm1Wjl/SzJ (NRG), mouse, iv, total radioactivity, Biodistribution: Heart
Where a SMILES comes first, the peptide text is derived from it. Bridges are numbered along the chain shown (N, C = ends). [ ]: non-standard residue; d: D form. The star is where a group is joined. X4 = O=C(O)CN1CCN(CC(=O)O)CCN(CC(=O)N[C@@H](CS(=O)(=O)O)C(=O)NCCCC[C@H](NC(=O)CNC(=O)CCCc2ccc(Cl)cc2)C(=O)*)CCN(CC(=O)O)CC1; X3 = O=C(O)CN1CCN(CC(=O)O)CCN(CC(=O)N[C@@H](CS(=O)(=O)O)C(=O)N[C@@H](CCCCNC(=O)CCCc2ccc(Br)cc2)C(=O)*)CCN(CC(=O)O)CC1; X5 = O=C(O)CN1CCN(CC(=O)O)CCN(CC(=O)N[C@@H](CS(=O)(=O)O)C(=O)N[C@@H](CCCCNC(=O)CCCc2ccc(Cl)cc2)C(=O)*)CCN(CC(=O)O)CC1; 2Nal = N[C@@H](Cc1ccc2ccccc2c1)C(=O)O; Lys(iPr) = CC(C)NCCCC[C@H](N)C(=O)O
# tissue uptake at 3 h values compiled below
Enter your answer as a number in %ID/g; do not include the unit.

CC(C)NCCCC[C@H](NC(=O)[C@H]1CCC(=O)N[C@@H](CCCCNC(=O)[C@H](CCCCNC(=O)CCCc2ccc(Br)cc2)NC(=O)[C@H](CS(=O)(=O)O)NC(=O)CN2CCN(CC(=O)O)CCN(CC(=O)O)CCN(CC(=O)O)CC2)C(=O)N[C@@H](Cc2ccc(O)cc2)C(=O)N[C@@H](CCCCNC(C)C)C(=O)N[C@H](CCCNC(=N)N)C(=O)N[C@@H](Cc2ccc3ccccc3c2)C(=O)N[C@H](C)C(=O)N1)C(N)=O [[^177Lu]Lu-BL34L20, metal not drawn] (K(X3)Y[Lys(iPr)][dR][2Nal][dA][dE][Lys(iPr)]-NH2; lactam N-7)	3.01
CC(C)NCCCC[C@H](NC(=O)[C@H]1CCC(=O)N[C@@H](CCCCNC(=O)[C@H](CCCCNC(=O)CCCc2ccc(Cl)cc2)NC(=O)[C@H](CS(=O)(=O)O)NC(=O)CN2CCN(CC(=O)O)CCN(CC(=O)O)CCN(CC(=O)O)CC2)C(=O)N[C@@H](Cc2ccc(O)cc2)C(=O)N[C@@H](CCCCNC(C)C)C(=O)N[C@H](CCCNC(=N)N)C(=O)N[C@@H](Cc2ccc3ccccc3c2)C(=O)N[C@H](C)C(=O)N1)C(N)=O [[^68Ga]Ga-BL34L16, metal not drawn] (K(X5)Y[Lys(iPr)][dR][2Nal][dA][dE][Lys(iPr)]-NH2; lactam N-7)	0.67

Kindly consider the entry below.
Query string: State, in one line, measured tissue uptake at 3 h of CC(C)NCCCC[C@H](NC(=O)[C@H]1CCC(=O)N[C@@H](CCCCNC(=O)[C@H](CCCCNC(=O)[C@H](CS(=O)(=O)O)NC(=O)CN2CCN(CC(=O)O)CCN(CC(=O)O)CCN(CC(=O)O)CC2)NC(=O)CNC(=O)CCCc2ccc(Cl)cc2)C(=O)N[C@@H](Cc2ccc(O)cc2)C(=O)N[C@@H](CCCCNC(C)C)C(=O)N[C@H](CCCNC(=N)N)C(=O)N[C@@H](Cc2ccc3ccccc3c2)C(=O)N[C@H](C)C(=O)N1)C(N)=O [[68Ga]Ga-BL34T1, metal not drawn] (K(X4)Y[Lys(iPr)][dR][2Nal][dA][dE][Lys(iPr)]-NH2; lactam N-7)
Result string: 1.91
